The reported numbers originate from PubChem BioAssay.

In this section, each of the compounds is paired with its reported composite z-score.
- study_system: Follistatin-related protein 3 (Homo sapiens)
- procedure_details: FSTL3 binders on small-molecule microarrays, primary screen, biochemical, small-molecule microarray, 635 nm fluorescence (AID 1105);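 also: score merges emission near 667 nm and signal to noise per printed spot across three slides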
- setup_conditions: FSTL3 binding, higher = more signal
Just the number.

Task: Give reported composite z-score value for "CC(C)CNC(=O)[C@@]1(Cc2ccccc2I)c2ccccc2C(=O)N(C2CCCCC2)[C@H]1c1ccc(CO)cc1"
Result: 0.248

Task: Give reported composite z-score value for "CCOC(=O)C[C@H]1[C@H](OC(=O)c2ccc(-c3ccccc3)cc2)[C@@H](NC(=O)Cc2ccc(OC)cc2)c2cc(OCCCO)ccc2N1C(=O)c1ccccc1"
Result: -0.0876

Task: Give reported composite z-score value for C=CCC(OC(C)=O)[C@@H]1[C@@H](N(Cc2cc3ccccc3o2)C(=O)c2cccc3ccccc23)c2cc(OCCCO)ccc2N1C(=O)c1ccc(-c2ccccc2)cc1 (some centres not stated)
Result: 0.176

Task: Give reported composite z-score value for "CN(C)CCCC[C@@H]1NC(=O)[C@@H]2C[C@H](C(=O)NCCCCCCN)[C@H](c3cccc(OCCO)c3)N2C1=O"
Result: 0.0587

Task: Give reported composite z-score value for "C=C[C@H](C)[C@@H](OC(=O)Nc1ccc(OC)cc1)c1ccc(O)c2ccccc12"
Result: 0.386

Task: Give reported composite z-score value for "COC(=O)[C@@]1(CCS(=O)(=O)c2ccccc2)N=C(c2ccc(OCCCO)cc2)O[C@H]1c1ccccc1CN=[N+]=[N-]"
Result: 1.01

Task: Give reported composite z-score value for "C[C@@]1([C@@H](NC(=O)c2ccc(-c3ccccc3)cc2)c2ccc(Cl)cc2)C[C@H]1C1CCCCC1"
Result: 0.313

----------
- procedure_details: small-molecule microarray binders of probe aNog, primary screen, biochemical, biotinylated probe, 635/667 nm fluorescence (AID 1115);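 also: probe is biotinylated aNog protein used at 0.15 µg/mL for 1 h at 4 C; z-score combines 667 nm fluorescence of each spot with its signal to noise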
- setup_conditions: higher = more signal
assay_metric: composite z-score
Just the number.

Recorded composite z-score, per entry:
>  <compound>
COCCOC(=O)N1C(=O)[C@@]2(c3cc(C#Cc4ccc(OC)cc4)ccc31)[C@H](c1ccccc1OCCO)N1[C@H](c3ccccc3)[C@H](c3ccccc3)OC(=O)[C@H]1[C@@H]2C(=O)NC[C@H](O)c1ccccc1

>  <composite z-score>
0.407

$$$$
>  <compound>
O=C(c1ccccc1)N1C(=O)[C@@]2(Cc3ccccc31)N=C(c1ccc(OCCCO)cc1)O[C@H]2c1ccccc1

>  <composite z-score>
1.57

$$$$
>  <compound>
C[C@H]1C2[C@H](Cc3ccccc3)NC(=O)[C@]23C(=O)N[C@H](Cc2ccccc2)C(=O)N2CCC[C@H]2C(=O)NC/C=C\C/C=C/C3[C@@H]2O[C@]12C (stereo partly specified)

>  <composite z-score>
-0.0003

$$$$

Task: Give reported composite z-score value for "COc1cc2c(cc1OC)CN(C(=O)[C@@H]1[C@H]3C(=O)O[C@H](c4ccccc4)[C@H](c4ccccc4)N3[C@H](c3ccc(O)cc3)[C@@]13C(=O)Nc1ccccc13)CC2"
Result: -0.321

Task: Give reported composite z-score value for "COc1ccccc1CN1C(=O)c2ccccc2[C@@H](C(=O)NC2CC2)[C@@H]1c1ccc(CO)cc1"
Result: -0.519

Task: Give reported composite z-score value for "CC(=O)NCCCC[C@@H]1NC(=O)[C@H]2C[C@@H](C(=O)NCCCCCCNC(=O)CS)[C@@H](c3ccc(O)cc3)N2C1=O"
Result: 0.0933

----------
- study_system: NADPH oxidase 4 (Homo sapiens) (UniProt Q9NPH5)
- Sequence (Q9NPH5 whole entry, looked up): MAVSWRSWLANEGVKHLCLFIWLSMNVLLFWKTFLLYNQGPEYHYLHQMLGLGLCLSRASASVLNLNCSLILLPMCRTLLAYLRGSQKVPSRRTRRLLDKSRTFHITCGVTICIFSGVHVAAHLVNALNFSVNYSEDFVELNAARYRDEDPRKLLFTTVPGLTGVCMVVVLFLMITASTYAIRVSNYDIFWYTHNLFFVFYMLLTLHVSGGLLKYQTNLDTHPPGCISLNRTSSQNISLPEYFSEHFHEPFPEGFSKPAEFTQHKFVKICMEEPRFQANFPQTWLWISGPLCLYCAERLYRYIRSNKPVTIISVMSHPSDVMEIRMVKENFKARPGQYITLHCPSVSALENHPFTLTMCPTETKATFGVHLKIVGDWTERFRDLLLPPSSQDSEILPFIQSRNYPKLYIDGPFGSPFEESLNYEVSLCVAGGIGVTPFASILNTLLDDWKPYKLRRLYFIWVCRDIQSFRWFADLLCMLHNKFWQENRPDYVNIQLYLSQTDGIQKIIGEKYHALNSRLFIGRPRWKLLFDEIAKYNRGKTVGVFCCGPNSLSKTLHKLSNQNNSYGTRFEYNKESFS
- procedure_details: NOX4-dependent H2O2 signal modulators, primary screen, NOX inhibitor project, cell-based, HEK293-NOX4, tetracycline-induced, Amplex Red fluorescence (AID 1160)
- setup_conditions: 45 min, higher = more signal, called active from +8 up or from −8 down
assay_metric: z-score
Just the number.

Recorded z-score, per entry:
>  <molecule>
COCCOC(=O)N1C(=O)[C@@]2(c3cc(C#CCC(C(=O)OC)C(=O)OC)ccc31)[C@H](C(=O)N1CCN(c3ncccn3)CC1)[C@H]1C(=O)O[C@H](c3ccccc3)[C@H](c3ccccc3)N1[C@@H]2c1ccccc1OCCO

>  <study_system>
NADPH oxidase 4 (Homo sapiens) (UniProt Q9NPH5)

>  <assay_result>
0.851

$$$$
>  <molecule>
COC(=O)[C@@]1(Cc2ccc(F)cc2)[C@H]2c3cc(C(=O)N(C)C)n(Cc4ccccc4)c3C[C@H]2CN1C(=O)c1ccccc1

>  <study_system>
NADPH oxidase 4 (Homo sapiens) (UniProt Q9NPH5)

>  <assay_result>
0.734

$$$$
>  <molecule>
COC(=O)[C@@]1(Cc2ccc(OC)cc2)[C@@H]2C(=CC(=O)[C@H]2CC(=O)C(=O)N2CCCC2)CN1C(=O)c1ccccc1

>  <study_system>
NADPH oxidase 4 (Homo sapiens) (UniProt Q9NPH5)

>  <assay_result>
1.54

$$$$
>  <molecule>
CCCCCCc1nc(-c2ccc(OC)nc2)cc2c1[Si](C(C)C)(C(C)C)O[C@H]2c1ccccc1

>  <study_system>
NADPH oxidase 4 (Homo sapiens) (UniProt Q9NPH5)

>  <assay_result>
-0.95

$$$$
>  <molecule>
O=C1NC(=O)C2C1C=CC(C(O)c1cc(C(F)(F)F)cc(C(F)(F)F)c1)N2Nc1ccccn1 (configuration not stated)

>  <study_system>
NADPH oxidase 4 (Homo sapiens) (UniProt Q9NPH5)

>  <assay_result>
-1.72

$$$$

Task: Give reported z-score value for "COc1ccccc1CN1C(=O)c2ccccc2[C@@H](C(=O)NC2CC2)[C@@H]1c1ccc(CO)cc1"
Result: 0.48

Task: Give reported z-score value for [N-]=[N+]=Nc1ccccc1[C@H]1OC(c2ccc(OCCCO)cc2)=N[C@@]1(CCS(=O)(=O)c1ccccc1)C(=O)NCC(O)CO (some centres not stated)
Result: -0.0647

----------
- procedure_details: small-molecule microarray binders of probe aWnt5a, primary screen, biochemical, biotinylated probe, 635/667 nm fluorescence (AID 1113);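 also: score merges 667 nm fluorescence intensity with signal-to-noise per printed feature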
- setup_conditions: higher = more signal
In this section, each of the molecules is paired with its reported composite z-score.
Just the number.

Recorded composite z-score, per entry:
>  <molecule>
C=CCC(OC(C)=O)[C@@H]1[C@@H](N(Cc2cccc3ccccc23)C(=O)c2ccc(-c3ccccc3)cc2)c2cc(OCCCO)ccc2N1C(=O)c1ccc2ccccc2c1 (stereo partly drawn)

>  <composite z-score>
-0.0196

$$$$
>  <molecule>
C[N+](C)(C)CCCCNC(=O)[C@@H]1C[C@@H]2C(=O)N[C@@H](Cc3ccccc3)C(=O)N2[C@@H]1c1cccc(OCCO)c1

>  <composite z-score>
-0.178

$$$$

Now look at this one.
Task: Give reported composite z-score value for "CCOC(=O)C[C@H]1[C@H](OC(=O)c2ccc(C(=O)c3ccccc3)cc2)[C@@H](NC(=O)c2ccc3ccccc3c2)c2cc(OCCCO)ccc2N1C(=O)Cc1ccc(OC)cc1"
Result: -0.0405

----------
- procedure_details: small-molecule microarray binders of probe aXIP, primary screen, biochemical, NeuroSMM set, 635/667 nm fluorescence (AID 1119);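 also: probe is the protein aXip251-270 applied at 1 µg/mL to compound-printed slides; binding of probe to printed compounds measured as 667 nm fluorescence plus signal to noise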
- setup_conditions: higher = more signal, called active from +8 up or from −8 down
Given measured composite Z-score, output Satisfied if it is greater than or equal to 0.0007 and Not satisfied if not.

Consider the following illustrative entries.
>  <compound>
CCCC[C@@H]1C[C@H]1[C@@H](NC(=O)c1cccs1)c1ccc(-c2ccccc2)cc1

>  <category>
Not satisfied

$$$$
>  <compound>
CC1(C)[C@@H]2CC(C(O)C3C=CC4C(=O)N(Cc5ccccc5)C(=O)C4N3n3cnnc3)=C[C@H]1C2 (some centres not stated)

>  <category>
Not satisfied

$$$$
>  <compound>
CCOC(=O)C[C@H]1[C@H](OC(=O)c2ccc(C(=O)c3ccccc3)cc2)[C@@H](NC(=O)c2ccc3ccccc3n2)c2cc(OCCCO)ccc2N1C(=O)c1ccccc1

>  <category>
Not satisfied

$$$$
>  <compound>
C=CC[C@@]1(C(=O)NCCN2CCOCC2)N=C(c2ccc(OCCCO)cc2)O[C@@H]1c1ccccc1N=[N+]=[N-]

>  <category>
Satisfied

$$$$
>  <compound>
C=C(CCCC)/C(=C/C[C@H](OC(=O)c1ccncc1)c1ccccc1OCCO)c1cnc2ccccc2c1

>  <category>
Not satisfied

$$$$

Please turn your attention to the following entry.
Task: Is composite Z-score at least 0.0007? Consider "COCCOC(=O)N1C(=O)[C@@]2(c3ccccc31)[C@H](c1ccccc1OCCO)N1[C@H](c3ccccc3)[C@H](c3ccccc3)OC(=O)[C@H]1[C@@H]2C(=O)N1CCN(c2ncccn2)CC1"
Result: Satisfied

----------
- procedure_details: small-molecule binders of probe aNOTCH3, primary screen, biochemical, small-molecule microarray, 635/667 nm fluorescence (AID 1120);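 also: probe is a biotin-tagged antibody raised against NOTCH3 rather than NOTCH3 protein; score merges spot fluorescence near 667 nm with spot signal to noise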
- setup_conditions: higher = more signal
In this section, each of the molecules is paired with its reported composite z-score.
Just the number.

>  <molecule>
C=CCNC(=O)[C@H]1[C@@H]2C(=O)O[C@@H](c3ccccc3)[C@@H](c3ccccc3)N2[C@@H](c2ccccc2OCCO)[C@]12C(=O)Nc1ccc(C#CCC(C(=O)OC)C(=O)OC)cc12

>  <composite z-score>
0.308

$$$$
>  <molecule>
COCCOC(=O)N1C(=O)[C@@]2(c3cc(C#CCCO)ccc31)[C@H](C(N)=O)[C@H]1C(=O)O[C@H](c3ccccc3)[C@H](c3ccccc3)N1[C@@H]2c1ccc(O)cc1

>  <composite z-score>
-0.159

$$$$
>  <molecule>
CC(C)C[C@@H]1NC(=O)[C@@H]2C[C@H](C(=O)O)[C@H](c3cccc(OCCO)c3)N2C1=O

>  <composite z-score>
-0.204

$$$$
>  <molecule>
CN(C)CCCCCCNC(=O)[C@H]1C[C@H]2C(=O)N3CCC[C@H]3C(=O)N2[C@H]1c1ccc(O)cc1

>  <composite z-score>
0.377

$$$$
>  <molecule>
CN1C=C(C(=O)OCCS(C)(=O)=O)C(C(=O)OCCS(C)(=O)=O)=CC(c2ccc(CO)cc2)=CC1C1CC1 (centres undefined)

>  <composite z-score>
-0.0918

$$$$
>  <molecule>
C=C(C)[C@@H]1CC=C(C(O)C2C=CC3C(=O)N(C)C(=O)C3N2Nc2ccccc2)CC1 (some centres undefined)

>  <composite z-score>
0.15

$$$$
>  <molecule>
CC(C)C(O)C1C=CC2C(=O)NC(=O)C2N1Nc1ccc(Cl)cc1Cl (centres undefined)

>  <composite z-score>
-0.0414

$$$$
>  <molecule>
COC(=O)C(CC#Cc1ccc2c(c1)[C@]1(C(=O)N2)[C@H](C(=O)Nc2nc3ccccc3s2)[C@H]2C(=O)O[C@H](c3ccccc3)[C@H](c3ccccc3)N2[C@@H]1c1ccc(O)cc1)C(=O)OC

>  <composite z-score>
-0.0431

$$$$
>  <molecule>
O=C1N(Cc2ccccc2)c2ccccc2[C@@H]2OC(c3ccc(OCCCO)cc3)=N[C@]12CCS(=O)(=O)c1ccccc1

>  <composite z-score>
0.147

$$$$
>  <molecule>
C=C(COC)C(=O)CC[C@@H](OC(C)=O)c1ccc(CO)o1

>  <composite z-score>
-0.0311

$$$$

Task: Give reported composite z-score value for "C=C[C@H](CO)NS(=O)(=O)c1ccc(Br)cc1"
Result: 0.234

Task: Give reported composite z-score value for O=C1NC(=O)C2C1C=CC(C(O)c1cc(C(F)(F)F)cc(C(F)(F)F)c1)N2Nc1ccccn1 (centres undefined)
Result: -0.0972

Task: Give reported composite z-score value for "C=C(CCCC)/C(=C/C[C@H](OC(=O)c1ccncc1)c1ccccc1OCCO)c1cnc2ccccc2c1"
Result: 0.0259

Task: Give reported composite z-score value for "COCCOC(=O)N1C(=O)[C@@]2(c3cc(C#CCNC(N)=O)ccc31)[C@H](C(=O)Nc1nc3ccccc3s1)[C@H]1C(=O)O[C@H](c3ccccc3)[C@H](c3ccccc3)N1[C@@H]2c1ccc(OCCO)cc1"
Result: 0.0952

Task: Give reported composite z-score value for "COC(=O)C(CC#Cc1ccc2c(c1)[C@]1(C(=O)N2)[C@H](c2ccc(OCCO)cc2)N2[C@H](c3ccccc3)[C@H](c3ccccc3)OC(=O)[C@H]2[C@@H]1C(=O)Nc1nc2ccccc2s1)C(=O)OC"
Result: 0.0038

Task: Give reported composite z-score value for "COC(=O)[C@@]1(Cc2ccccc2)N=C(c2ccc(OCCCO)cc2)O[C@H]1c1ccccc1"
Result: -0.17

Task: Give reported composite z-score value for "COCCCNC(=O)[C@]1(CCC(=O)OC(C)(C)C)N=C(c2ccc(OCCCO)cc2)O[C@@H]1c1ccccc1CN=[N+]=[N-]"
Result: 0.395

Task: Give reported composite z-score value for "COC(=O)[C@@]1(Cc2ccc(OC)cc2)[C@H]2c3cc(C(=O)N(C)C)n(Cc4ccc(S(C)(=O)=O)cc4)c3C[C@H]2CN1C(=O)c1ccccc1"
Result: 0.697

Task: Give reported composite z-score value for CN1C(=O)C2C=CC(C(O)C#Cc3ccccc3)N(N3CCCCC3)C2C1=O (centres undefined)
Result: 1.15
